Data origin, for the record: patent US20100196390A1

ASSAY_SYSTEM: TrkB (Homo sapiens (Human), UniProt Q16620 32-430)
Sequence (Q16620 32-430 limits assumed): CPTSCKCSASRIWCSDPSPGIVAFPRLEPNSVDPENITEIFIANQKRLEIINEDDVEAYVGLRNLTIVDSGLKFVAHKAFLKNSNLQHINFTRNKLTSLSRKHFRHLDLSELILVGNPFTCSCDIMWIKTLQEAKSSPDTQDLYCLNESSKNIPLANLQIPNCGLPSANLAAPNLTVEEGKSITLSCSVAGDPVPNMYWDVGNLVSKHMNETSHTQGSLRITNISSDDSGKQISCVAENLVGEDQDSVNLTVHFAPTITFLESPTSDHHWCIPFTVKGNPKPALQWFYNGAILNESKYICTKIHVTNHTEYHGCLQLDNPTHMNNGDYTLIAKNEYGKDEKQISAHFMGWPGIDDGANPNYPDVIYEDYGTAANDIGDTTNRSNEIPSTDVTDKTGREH
ASSAY_REMARKS: koff of Fab at 25 C; T1/2=Log2/koff
PROPERTY_NAME: T1/2 (min)
Numbers only; they are read as min.

>  <BINDER>
9-D11 (Fab, V domains shown, Fab) VH: QVQLVQSGAEVKKPGASVKVSCKASGYTFTNYVILWVRQAPGQGLEWMGYINPYNDGTKYNEKFKGRVTMTRDTSTSTVYMELSSLRSEDTAVYYCARLLKYRRFKYYAIDYWGQGTTVTVSS VL: DIQMTQSPSSLSASVGDRVTITCRASENVYSNLAWYQQKPGKAPKLLIYAASNLQSGVPSRFSGSGSGTDFTFTISSLQPEDIATYYCQHFWMSPFTFGQGTKLEIK

>  <T1/2 [min]>
1.55

$$$$

Ask: Value lookup for T1/2; key = 4B12 (Fab, V domains shown, Fab) VH: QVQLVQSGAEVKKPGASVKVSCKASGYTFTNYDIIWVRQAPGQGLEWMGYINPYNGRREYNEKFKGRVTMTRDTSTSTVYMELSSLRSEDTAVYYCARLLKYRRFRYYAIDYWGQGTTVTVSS VL: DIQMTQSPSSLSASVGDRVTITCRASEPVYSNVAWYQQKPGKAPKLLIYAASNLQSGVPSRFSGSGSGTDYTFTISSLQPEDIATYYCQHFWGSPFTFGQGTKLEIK
Result: 12.8
